From: the supplement of paper PMC8728848

- TARGET: Fuc(a1-2)[GalNAc(a1-3)]Gal(b1-4)GlcNAc(b1-2)Man(a1-3)[Fuc(a1-2)[GalNAc(a1-3)]Gal(b1-4)GlcNAc(b1-2)Man(a1-6)]Man(b1-4)GlcNAc(b1-4)GlcNAc
- ASSAY NAME: glycan array binding signal (z-score within array); higher = stronger binding
- MEASUREMENT CONTEXT: glycan notation: IUPAC condensed, linker removed
The full list was thinned out, with the strongest signals kept by preference.
Outcome: Condition met for glycan array binding signal (z-score) of at least 4; Condition not met for anything lower.

Use the examples below as a reference point.
>  <BINDER>
FGFR2-Fc (protein) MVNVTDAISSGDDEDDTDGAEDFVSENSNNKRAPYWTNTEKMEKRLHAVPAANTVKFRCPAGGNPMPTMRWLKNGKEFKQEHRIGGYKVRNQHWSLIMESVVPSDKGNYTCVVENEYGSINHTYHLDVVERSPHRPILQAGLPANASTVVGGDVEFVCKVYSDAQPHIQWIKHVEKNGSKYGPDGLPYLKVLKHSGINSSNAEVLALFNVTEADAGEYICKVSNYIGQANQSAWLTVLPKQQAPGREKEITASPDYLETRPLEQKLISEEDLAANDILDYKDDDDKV

>  <CAT>
Condition not met

$$$$
>  <BINDER>
Tachylectin-2 (Tachypleus tridentatus), TAL2_TACTR (protein) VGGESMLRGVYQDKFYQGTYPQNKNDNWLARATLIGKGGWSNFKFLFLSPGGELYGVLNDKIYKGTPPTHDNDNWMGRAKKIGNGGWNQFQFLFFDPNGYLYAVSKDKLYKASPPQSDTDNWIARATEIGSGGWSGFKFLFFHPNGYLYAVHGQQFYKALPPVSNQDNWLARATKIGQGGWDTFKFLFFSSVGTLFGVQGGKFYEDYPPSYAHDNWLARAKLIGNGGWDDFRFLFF

>  <CAT>
Condition met

$$$$
>  <BINDER>
LecRKVI.2 (protein) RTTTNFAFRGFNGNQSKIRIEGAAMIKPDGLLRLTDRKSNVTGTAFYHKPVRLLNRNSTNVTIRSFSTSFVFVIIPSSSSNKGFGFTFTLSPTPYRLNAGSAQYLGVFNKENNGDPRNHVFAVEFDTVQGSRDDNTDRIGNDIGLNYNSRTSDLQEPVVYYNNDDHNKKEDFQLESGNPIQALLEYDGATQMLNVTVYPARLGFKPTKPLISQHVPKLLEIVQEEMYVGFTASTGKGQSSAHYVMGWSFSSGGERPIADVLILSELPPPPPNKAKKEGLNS

>  <CAT>
Condition met

$$$$

Is glycan array binding signal (z-score) at least 4? Consider Gal 9 (Homo sapiens), O00182 (protein) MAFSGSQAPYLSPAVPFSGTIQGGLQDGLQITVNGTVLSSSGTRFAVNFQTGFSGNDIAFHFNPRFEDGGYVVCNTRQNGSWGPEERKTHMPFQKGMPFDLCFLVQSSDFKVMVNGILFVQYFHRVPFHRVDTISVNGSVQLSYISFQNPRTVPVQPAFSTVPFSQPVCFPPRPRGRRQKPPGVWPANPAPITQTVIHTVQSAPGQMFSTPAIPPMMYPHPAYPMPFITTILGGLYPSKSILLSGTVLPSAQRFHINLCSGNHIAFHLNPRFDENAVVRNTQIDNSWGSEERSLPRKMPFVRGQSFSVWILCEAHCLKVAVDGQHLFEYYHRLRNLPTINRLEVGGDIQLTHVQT
Condition met

Another: rCnSL-proB (Clitocybe nebularis) (protein) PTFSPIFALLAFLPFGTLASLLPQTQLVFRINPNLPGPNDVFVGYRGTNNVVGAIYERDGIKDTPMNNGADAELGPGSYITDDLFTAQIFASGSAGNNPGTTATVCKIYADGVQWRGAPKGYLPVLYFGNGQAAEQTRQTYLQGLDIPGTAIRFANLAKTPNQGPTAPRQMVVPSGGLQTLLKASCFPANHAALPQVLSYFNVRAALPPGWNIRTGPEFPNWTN
Condition not met
